# target_of_assay: KRAS G12V (Homo sapiens, UniProt P01116+P62937, G12V)
# Sequence (P01116 1-169 isoform P01116-2 G12V limits assumed): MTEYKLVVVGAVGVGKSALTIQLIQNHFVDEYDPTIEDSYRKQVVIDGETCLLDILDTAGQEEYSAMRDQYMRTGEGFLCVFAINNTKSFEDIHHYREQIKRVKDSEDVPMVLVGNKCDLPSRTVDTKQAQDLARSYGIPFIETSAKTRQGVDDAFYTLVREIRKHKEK
# Sequence (P62937 whole entry): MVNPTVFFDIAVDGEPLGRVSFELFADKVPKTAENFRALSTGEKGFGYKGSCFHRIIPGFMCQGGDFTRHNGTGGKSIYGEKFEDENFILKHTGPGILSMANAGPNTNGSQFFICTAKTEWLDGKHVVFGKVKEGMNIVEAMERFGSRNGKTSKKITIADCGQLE
# measurement_description: Ras-Raf disruption / FRET / MOA assay (BRAF RBD)
# Format: biochemical
# applied_conditions: Ras-Raf disruption, with Cyclophilin A; read-out: KRAS G12V FRET data IC50
For each entry below, report its IC50 value.

Tested on KRAS G12V (Homo sapiens, UniProt P01116+P62937, G12V): CCn1c(-c2cccnc2[C@H](C)OC)c2c3cc(ccc31)-c1cc(O)cc(c1)C[C@H](NC(=O)[C@H](C(C)C)N(C)C(=O)[C@H]1CCN(C(=O)[C@H]3CN3)[C@H]1C)C(=O)N1CCC[C@H](N1)C(=O)OCC(C)(C)C2 (atropisomer, axis not shown) [Example 206] . Observed IC50: 100 to 1000 nM

Tested on KRAS G12V (Homo sapiens, UniProt P01116+P62937, G12V): CCn1c(-c2cccnc2[C@H](C)OC)c2c3cc(ccc31)-c1cc(O)cc(c1)C[C@H](NC(=O)[C@H](C(C)C)N(C)C(=O)c1ncc(NC(=O)[C@H]3CN3)n1C)C(=O)N1CCC[C@H](N1)C(=O)OCC(C)(C)C2 [Example 84] . Observed IC50: 100 to 1000 nM

Tested on KRAS G12V (Homo sapiens, UniProt P01116+P62937, G12V): CCn1c(-c2cccnc2[C@H](C)OC)c2c3cc(ccc31)-c1cccc(c1)C[C@H](NC(=O)[C@H](C(C)C)N(C)C(=O)[C@H]1C[C@H](N=C=NCCOC)C1)C(=O)N1CCC[C@H](N1)C(=O)OCC(C)(C)C2 [Example 78] . Observed IC50: 1000 to 10000 nM

Tested on KRAS G12V (Homo sapiens, UniProt P01116+P62937, G12V): CCn1c(-c2cnccc2COC)c2c3cc(ccc31)-c1cccc(c1)C[C@H](NC(=O)[C@H](C(C)C)N(C)C(=O)[C@@H]1CCC(N=C=Nc3ccc(OC)cc3)C1)C(=O)N1CCC[C@H](N1)C(=O)OCC(C)(C)C2 (some centres unmarked) [70 A and B] . Observed IC50: > 10000 nM

Tested on KRAS G12V (Homo sapiens, UniProt P01116+P62937, G12V): CCn1c(-c2cccnc2[C@H](C)OC)c2c3cc(ccc31)-c1cccc(c1)C[C@H](NC(=O)[C@H](C(C)C)N(C)C(=O)[C@H]1C[C@H](N=C=Nc3c(C)cccc3C)C1)C(=O)N1CCC[C@H](N1)C(=O)OCC(C)(C)C2 [Example 126] . Observed IC50: 1000 to 10000 nM

Tested on KRAS G12V (Homo sapiens, UniProt P01116+P62937, G12V): CCn1c(-c2cccnc2[C@H](C)OC)c2c3cc(ccc31)-c1cc(O)cc(c1)C[C@H](NC(=O)[C@H](C(C)C)N(C)C(=O)N1CC(NC(=O)[C@@H]3CN3)C1)C(=O)N1CCC[C@H](N1)C(=O)OCC(C)(C)C2 (atropisomer, axis not shown) [Example 188] . Observed IC50: 100 to 1000 nM

Tested on KRAS G12V (Homo sapiens, UniProt P01116+P62937, G12V): CCn1c(-c2cccnc2[C@H](C)OC)c2c3cc(ccc31)-c1cc(O)cc(c1)C[C@H](NC(=O)[C@H](C(C)C)N1CC[C@]3(CCN(C(=O)[C@@H]4N[C@@H]4C4CC4)C3)C1=O)C(=O)N1CCC[C@H](N1)C(=O)OCC(C)(C)C2 [Example 305] . Observed IC50: 10 to 100 nM

Tested on KRAS G12V (Homo sapiens, UniProt P01116+P62937, G12V): CCn1c(-c2cccnc2[C@H](C)OC)c2c3cc(ccc31)-c1cc(O)cc(c1)C[C@H](NC(=O)[C@H](C(C)C)N(C)C(=O)C1CCN(C(=O)[C@H]3CN3)CC1)C(=O)N1CCC[C@H](N1)C(=O)OCC(C)(C)C2 [Example 86] . Observed IC50: 100 to 1000 nM

Every entry's value here was drawn from patent US20230233569A1.
